I'd appreciate it if you could supply protein stability index values for the items below.
B1: SOAT1 (parent)
chain: GVLILFLTFFAFLHCWLNAFAEML

- Variants of: B1
- ASSAY_PROCEDURE: protein stability index of a GFP-peptide fusion (GPS, HEK-293T) (PSI 1-6); higher = more stable;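 note: lentivirally expressed fusions sorted by FACS into six bins by GFP to DsRed ratio, PSI derived from sequencing read proportions per bin multiplied by bin number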
- MEASUREMENT_PARAMETERS: c terminus: a fixed tail appended
Provide a numeric answer; units are not to be included.

Reported protein stability index, variant V2Y : ____
2.31

Likewise for I4Y ?
3.33

Likewise for E22Y ?
2.22

Likewise for E22C ?
2.74

Likewise for L5C ?
2.84

Likewise for M23H ?
2.55

Likewise for A19T ?
2.82

Likewise for A21T ?
2.29

Likewise for F12Y ?
2.75

Likewise for H14Q ?
2.47

Likewise for H14F ?
1.52

Likewise for T8A ?
3.88

Likewise for E22A ?
1.99

Likewise for L5H ?
3.32

Likewise for G1C ?
2.93

Likewise for N18M ?
2.78

Likewise for I4F ?
1.75

Likewise for F9D ?
3.34

Likewise for E22F ?
3.34

Likewise for E22H ?
3.56

Likewise for L13K ?
3.57

Likewise for L7M ?
2.38

Likewise for L17Y ?
3.42

Likewise for F6V ?
3.25

Likewise for L24E ?
3.41

Likewise for E22S ?
3.37

Likewise for A19G ?
3.14

Likewise for F9A ?
1.36

Likewise for I4L ?
2.76

Likewise for A21H ?
2.98

Likewise for F6Y ?
3.06

Likewise for M23N ?
2.68

Likewise for F12H ?
2.43

Likewise for A21M ?
3.62

Likewise for T8G ?
2.61

Likewise for L5W ?
2.17

Likewise for L5N ?
3.7

Likewise for A19D ?
2.85

Likewise for M23T ?
2.98

Likewise for M23L ?
2.88

Likewise for I4H ?
1.85

Likewise for L24V ?
2.75

Likewise for F20P ?
2.93

Likewise for M23Q ?
2.73

Likewise for V2L ?
1.03

Likewise for F9S ?
1.94

Values compiled from the supplement of paper PMC10567573.
